- Target Of Assay: human LPAR1 (Homo sapiens, UniProt Q92633)
- Construct: host or cells: CHO-K1
- Sequence (Q92633 whole entry): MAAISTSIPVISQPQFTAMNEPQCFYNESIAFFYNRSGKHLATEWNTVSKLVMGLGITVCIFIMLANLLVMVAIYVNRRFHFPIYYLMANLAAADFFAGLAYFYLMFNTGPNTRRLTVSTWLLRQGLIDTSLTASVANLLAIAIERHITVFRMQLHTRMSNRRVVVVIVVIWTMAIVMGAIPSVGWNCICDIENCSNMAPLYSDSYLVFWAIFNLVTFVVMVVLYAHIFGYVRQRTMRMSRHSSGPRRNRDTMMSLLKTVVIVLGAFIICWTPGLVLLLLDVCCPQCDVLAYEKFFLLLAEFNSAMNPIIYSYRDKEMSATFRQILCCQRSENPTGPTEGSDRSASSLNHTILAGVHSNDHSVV
- Assay Text: LPAR1 intracellular calcium mobilization assay (antagonist mode, CHO-K1 EDG2 cells, FLIPR)
- Assay type: cell-based
- Reported Conditions: antagonist activity; CHO-K1 EDG2 cells expressing human LPAR1; 60 min pre-incubation at 37° C., then LPA 18:2 at EC80 concentration (100 nM); test compound 0.5 nM to 10 μM; read-out: LPAR1 (EC50; nM)
Reported Metric: IC50 (nM)
Hi! Could you send only the number? It should be in nM, unit omitted.

// below: answered compounds
C[C@@H](OC(=O)Nc1c(-c2ccc(NC(=O)c3ccc(C4CC4)nc3)cn2)nnn1C)c1cc(F)cnc1F | 176
C[C@@H](OC(=O)Nc1c(-c2ccc(NC(=O)C(F)(F)F)cn2)nnn1C)c1cccc(F)c1 | 345
CC(=O)Nc1ccc(-c2nnn(C)c2NC(=O)O[C@H](C)c2cc(F)cnc2F)nc1 | 2050
Cc1nc(-c2nnn(C)c2NC(=O)O[C@H](C)c2cc(F)cnc2F)ccc1NC(=O)C1(CN)CC(F)(F)C1 | 34
C[C@@H](OC(=O)Nc1c(-c2ccc(NC(=O)c3cnc(-c4cccc(Cl)c4)nc3)cn2)nnn1C)c1cc(F)cnc1F | 22
COC1(C(=O)Nc2ccc(-c3nnn(C)c3NC(=O)O[C@H](C)c3cccnc3Cl)nc2)CC1 | 1260
C[C@@H](OC(=O)Nc1c(-c2ccc(NC(=O)C3(O)CC3)cn2)nnn1C)c1cccnc1Cl | 2770
C[C@@H](OC(=O)Nc1c(-c2ccc(NC(=O)c3ccc(C45CC(C4)C5)cc3)cn2)nnn1C)c1cc(F)cnc1F | 365
Cc1nc(-c2nnn(C)c2NC(=O)O[C@H](C)c2cc(F)cnc2F)ccc1NC(=O)c1cnc(C2CC2)o1 | 261
C[C@@H](OC(=O)Nc1c(-c2ccc(NC(=O)C3(C#N)CC3)c(Cl)n2)nnn1C)c1cc(F)cnc1F | 186

**Query** # IC50 lookup, item C[C@@H](OC(=O)Nc1c(-c2ccc(NC(=O)C34CC(c5ccccc5)(C3)C4)cn2)nnn1C)c1cc(F)cnc1F
**Result** 13

**Query** # IC50 lookup, item CC(=O)Nc1ccc(-c2nnn(C)c2NC(=O)O[C@H](CF)c2cccc(F)c2)nc1C
**Result** 37000

**Query** # IC50 lookup, item C[C@@H](OC(=O)Nc1c(-c2ccc(NC(=O)C34CC(OS(C)(=O)=O)(C3)C4)cn2)nnn1C)c1cccnc1Cl
**Result** 152
